- Test system: NCI-H460, human non-small cell lung carcinoma cells
- assay_summary: Proliferation assay, NCI-H460 (crystal violet)
- Assay type: cell-based
- particulars: 96 h, NCI-H460, 4 days, read-out: Inhibition of NCI-H460 cell proliferation
quantity: IC50

Reference set, count: 5
molecule | target_under_test | quantity | value_observed
CS(=N)(=O)Cc1cc(F)nc(Nc2cc(-c3ccc(F)c4ccoc34)c(F)cn2)c1 (racemic) | NCI-H460, human non-small cell lung carcinoma cells | IC50 | 36 nM
Cc1cc(CS(C)(=N)=O)cc(Nc2cc(-c3ccc(F)c4ccoc34)c(F)cn2)n1 (racemic) | NCI-H460, human non-small cell lung carcinoma cells | IC50 | 33 nM
CS(=O)(Cc1cc(Nc2cc(-c3ccc(F)c4ccoc34)c(F)cn2)nc(C(F)(F)F)c1)=NC(=O)C(F)(F)F (racemic) | NCI-H460, human non-small cell lung carcinoma cells | IC50 | 36 nM
CS(=O)(Cc1ccnc(Nc2cc(-c3ccc(F)c4ccoc34)c(F)cn2)c1)=NC(=O)C(F)(F)F (racemic) | NCI-H460, human non-small cell lung carcinoma cells | IC50 | 46 nM
CS(=O)(Cc1cc(F)nc(Nc2cc(-c3ccc(F)c4ccoc34)c(F)cn2)c1)=NC(=O)C(F)(F)F (racemic) | NCI-H460, human non-small cell lung carcinoma cells | IC50 | 32 nM

Input: Please tell me: IC50 of CCc1cc(CS(C)(=N)=O)cc(Nc2cc(-c3ccc(F)c4ccoc34)c(F)cn2)n1 (racemic) , system NCI-H460, human non-small cell lung carcinoma cells?
Output: 35 nM

Input: Try the molecule CS(=N)(=O)Cc1cc(Nc2cc(-c3ccc(F)c4ccoc34)c(F)cn2)nc(C(F)(F)F)c1 (racemic)
Output: 21 nM

Input: What about this molecule? CS(=N)(=O)Cc1ccnc(Nc2cc(-c3ccc(F)c4ccoc34)c(F)cn2)c1 (racemic)
Output: 120 nM

Reference for the values: patent US9770445B2
